Items are presented alongside their recorded TGI.
test system: MCF7 breast; assay: NCI tumour cell line growth inhibition, 48 h

Observe how each entry below is paired with its result.
CCN(CC)C(=S)N/N=C/c1ccccn1 | 26 µM
O=C(Nc1nnc(-c2ccccc2)o1)C(SC(=S)N1CCOCC1)c1ccccc1 (centres undefined) | > 100 µM
CC(=NCCN(CCN=C(C)c1c(O)cc(C)oc1=O)CCN=C(C)c1c(O)cc(C)oc1=O)c1c(O)cc(C)oc1=O | > 100 µM
O=C1C=C2CO[C@H]3OC[C@H](O)[C@@H]1[C@@H]23 | > 100 µM
CCN(CC)CCOc1ccc(Nc2ncc3cc(-c4c(Cl)cccc4Cl)c(=O)n(CCOC)c3n2)cc1 | 8.4 µM

TGI measured on O=c1[nH]cnc2c1nnn2C1OC(CO)C(O)C1O (centres undefined) = > 78.8 µM

response.value for CNC(=O)c1c(NC(=O)c2cccc(C(F)(F)F)c2)sc2c1CCC(=O)C2 (field: TGI) = 2.84 µM

Per the record, COc1cc([C@@H]2c3cc4c(cc3C(Br)[C@H]3COC(=O)[C@H]23)OCO4)cc(OC)c1OC (some centres undefined) has TGI of > 100 µM

Entry O=C(c1ccccc1)c1c(C(F)(F)F)n([O-])c2cc(Cl)c(Cl)cc2[n+]1=O , TGI reported as 1.24 µM

// field: TGI; key: CC1(C)CN(c2ccccc2)C(=O)C1OC(=O)[C@@]1(C)C[C@@H]2C=C[C@H]1C2 (some centres undefined) ; value = 58 µM

// Cc1cccc2nc3cccc(C(=O)NCCC[N+](C)(CCCNC(=O)c4cccc5nc6cccc(C)c6nc45)Cc4c([N+](=O)[O-])ncn4C)c3nc12 : TGI value = 96.9 µM

Just so you know, measured TGI for C=C1C(=O)O[C@H]2[C@H]1CC/C(CNS(=O)(=O)c1ccc3ccccc3c1)=C\CC[C@@]1(C)O[C@@H]21 came out at 2.62 µM

TGI for C[C@@H]1C[C@]2(C[C@@H](C)[C@H]3C(C[C@@]4(C)CCC[C@@H]5C6=C[C@H](CCC34C)OC6=CC(=O)OC5(C)C)O2)OC1=O (some centres undefined) is > 51.5 µM

The compound listed as O=Nc1c(-c2cccc([N+](=O)[O-])c2)nc2cnccn12 has a reported TGI of > 100 µM

Looking up Cc1ccc(C)c(COCCOCn2cc(Br)c(N)nc2=O)c1 , I see its TGI listed as > 100 µM

----------
system: OVCAR-4 ovarian; assay: NCI tumour cell line growth inhibition, 48 h; in the data active = GI50 below about 0.43 µM; inactive = the rest
Log the outcome using a class from 1 = active, 0 = inactive

Consider the following illustrative entries.
COC(=O)Nc1nc2ccc(Oc3ccc(NC(=O)Nc4cccc(Br)c4)cc3)cc2[nH]1 | 0
COc1cc2c(cc1OCCCOC1=C=C=C(c3ccc4c(c3)c3cc(-c5ccc(OCCCOc6cc7c(cc6OC)C(=O)N6CCC[C@H]6C=N7)cc5)ccc3n4S(=O)(=O)c3ccc(C)cc3)C=C1)N=C[C@@H]1CCCN1C2=O | 0
C=C1C(=O)O[C@H]2[C@H]1CC/C(CNS(=O)(=O)c1ccc3ccccc3c1)=C\CC[C@@]1(C)O[C@@H]21 | 0
Cn1c(=O)c(Oc2cccc(F)c2)cc2cnc(NC3CCOCC3)nc21 | 0
CNC(=O)c1c(NC(=O)c2cccc(C(F)(F)F)c2)sc2c1CCC(=O)C2 | 1

Could you please tell me the result logged for Fc1ccc(C2CC(c3cccc(Nc4ccncc4)c3)=NN2c2cc(Cl)cc(Cl)c2)cc1 (stereo not drawn) in this assay?
0

----------
tested on: OVCAR-5 ovarian; test: NCI tumour cell line growth inhibition, 48 h
The following compounds are listed with their measured TGI values.

CN(C)/C=C/c1nnnn1-c1ccc(Cl)cc1 | 55.4 µM

Short answer for COc1cccc2c1C1(O)C2CCCC12OCCCO2 (stereo not drawn) : TGI was > 100 µM

// recorded TGI for Oc1ccc2c(c1)CC[N+]1=C2CCC2CCCC21 (stereo not drawn) : > 100 µM

----------
test system: HL-60(TB) leukemia; assay: NCI tumour cell line growth inhibition, 48 h; in the data active = GI50 below about 0.43 µM; inactive = the rest
Answer with one of the outcomes given here: yes for active, no for inactive

COc1cc2c(c(OC)c1OC)-c1ccc(NNC(=S)N(Cc3cccc(C[N+](Cc4cccc(CNC56CC7CC(CC(C7)C5)C6)c4)(Cc4cccc(CNC56CC7CC(CC(C7)C5)C6)c4)Cc4cccc(CN(C(=S)NNc5ccc6c(cc5=O)[C@@H](NC(C)=O)CCc5cc(OC)c(OC)c(OC)c5-6)C56CC7CC(CC(C7)C5)C6)c4)c3)C34CC5CC(CC(C5)C3)C4)c(=O)cc1[C@@H](NC(C)=O)CC2 (stereo not given in full) | yes
Cn1c(=O)c(Oc2cccc(F)c2)cc2cnc(NC3CCOCC3)nc21 | no
OCCCCC#Cc1ccccc1C#Cc1ccccc1F | no
O=C(Nc1ccc(Cl)cc1)c1cc2c(cc1O)[nH]c1ccccc12 | no
Nc1ccc(-c2nc3ccccc3[nH]2)c(O)c1 | no

GET /call?item= CN(C)C(=S)NN=C(c1ccccn1)c1ccccn1 returns the recorded outcome of this test.
yes

Field: outcome | Entry: C[C@]12CC/C(=N\N)C[C@@H]1CC[C@@H]1[C@@H]2CC[C@]2(C)/C(=N/N)CC[C@@H]12
no

----------
tested on: HL-60(TB) leukemia; assay: NCI tumour cell line growth inhibition, 48 h
Experimental readout: TGI

Take a look at these entries with their results.
CCN(CC)c1ccc(N=C2C=C(C(=O)Nc3ccc(S(C)(=O)=O)cc3)C(=O)c3ccccc32)c(C)c1 | > 100 µM
COc1ccc(-c2nsc3c2NC(=O)CC3c2ccc3c(c2)OCO3)cc1 (stereo not drawn) | 8.32 µM
CC(C)[C@H]1NC(=O)[C@H]2N=C(O[C@@H]2C)[C@@H]2CCCN2C(=O)[C@H](Cc2ccccc2)NC(=O)[C@@H]2CSC(=N2)[C@@H](Cc2ccccc2)NC(=O)[C@@H]2CSC1=N2 | > 100 µM
CC(NC1=NCCO1)c1cccc([N+](=O)[O-])c1 (stereo not drawn) | > 100 µM
CC(=N\O)/C(C)=N/O.CC(=N\O)/C(C)=N/O.CC(=N\O)/C(C)=N/O.CC(=N\O)/C(C)=N/O.[Cu].[Cu] | 44.4 µM

Reported TGI of Cc1nccn1S(=O)(=O)c1ccc(Br)cc1Br : 51.5 µM

compound COC(=O)c1ccccc1C#CCCCOS(C)(=O)=O , TGI observed: > 10 µM

Reported TGI ( CCON=C1C(C)(C)C(C)(C)C(C)(C)C1(C)C ) = > 100 µM

Reported TGI of O=c1[nH]c2ccccc2nc1/C=C(\O)C(F)F : > 100 µM

Entry Nc1ccccc1NC(=O)CCCCCCC(=O)Nc1ccc2c(c1)/C(=C/c1ccc[nH]1)C(=O)N2 ; TGI = > 100 µM

The reported value for Cc1cc(Nc2ccc(N=Nc3ccc(O)c4ncccc34)cc2)nc(C)n1 in terms of TGI is 16.5 µM

TGI recorded for this compound, C=C1C(=O)O[C@H]2[C@H]1CC/C(CNS(=O)(=O)c1ccc3ccccc3c1)=C\CC[C@@]1(C)O[C@@H]21 , is 3.96 µM

----------
tested on: SR leukemia; experiment: NCI tumour cell line growth inhibition, 48 h
Experimental readout: GI50

Nc1nc2c(c3ncccc13)C(c1ccc(Cl)c(Cl)c1)Cc1ncccc1-2 (centres undefined) | 2460 nM
O=S(=O)([O-])[O-].[Cl-].[NH2-].[NH2-].[NH2-].[NH2-].[Ru+3].c1ccc(-c2cccnc2)cc1 | > 100000 nM

The reported GI50 of the compound C=C1C(=O)O[C@H]2[C@H]1CC/C(CNC(=O)/C=C/c1cccc(OC)c1)=C\CC[C@@]1(C)O[C@@H]21 was 537 nM

GI50 in this record for Nc1c(C(=O)c2cccc(-c3ccc[n+]([O-])c3)c2)cnn1-c1ccc(F)cc1F : 17800 nM

Documented GI50 of CCCCCCOc1ccc(/C=N/NC(N)=S)cc1 : 4220 nM

Documented GI50 of O=CN1N=C(c2ccc(Nc3ccnc4cc(Cl)ccc34)cc2)CC1c1ccccc1 (centres undefined) : 1770 nM

Reported GI50 for Cc1cc(N=Cc2c(CO)cnc(C)c2O)c(N=Cc2c(CO)cnc(C)c2O)cc1C.[Zn] was > 100000 nM

The compound listed as CCCCCCCCCCCCCC[P+](CCCCCC)(CCCCCC)CCCCCC shows GI50 equal to 19.6 nM

Record NS(=O)(=O)c1ccc(C2C3=C(CCCC3=O)OC3=C2C(=O)c2ccccc2C3=O)cc1 (centres undefined) . Reported GI50: 470 nM

----------
test system: SK-MEL-28 melanoma; experiment: NCI tumour cell line growth inhibition, 48 h; in the data active = GI50 below about 0.43 µM; inactive = the rest
Please state which outcome applies, choosing from 1.0 = active, 0.0 = inactive

// known answers, use as guide
O=S(=O)([O-])[O-].[Cl-].[NH2-].[NH2-].[NH2-].[NH2-].[Ru+3].c1ccc(-c2cccnc2)cc1 | 0.0
c1cc(C2CCCCC2)ccc1OCCCCCCN1CCNCC1 | 0.0
NC1CCCCC1N.O=C([O-])P(=O)([O-])[O-].[Na+].[Pt+4] (centres undefined) | 0.0

Please indicate how the test categorized O=C1c2ccccc2-c2nccc3cc(Cl)nc1c23 .
0.0

State the result this test recorded for O=C1c2ccccc2-c2c1c1ccc([N+](=O)[O-])cc1c(=O)n2CCNCCCNCCn1c2c(c3ccc([N+](=O)[O-])cc3c1=O)C(=O)c1ccccc1-2 .
0.0

What call does the record list for CN(C)/C=C/c1nnnn1-c1ccc(Cl)cc1 ?
0.0

Please indicate how the test categorized CN(C)C(=S)NN=C(c1ccccn1)c1ccccn1 .
1.0

Test call, this compound: COc1cc(N=Nc2ccccc2)cc(/C=N\[N-]C(N)=S)c1[O-].COc1cc(N=Nc2ccccc2)cc(/C=N\[N-]C(N)=S)c1[O-].[Fe+4]
0.0

How did this test come out for CC1=C(C(=O)Nc2ccc3[nH]ncc3c2)C(c2ccc(F)cc2)NC(=O)N1 (centres undefined) ?
0.0
